# TEST_NAME: Metabolic stability of the compound in human liver microsomes assessed as parent compound remaining at 1 uM measured for 60 mins in presence of NADPH regenerating system by LC/MS analysis
# Assay type: ADME, Microsome
# MEASUREMENT_CONDITIONS: read-out: Stability
OUTCOME_MEASURE: remaining at 1 h, 1 µM

# compound "O=C(O)CNC(=O)c1ccc(S(=O)(=O)N2CCC(c3ccc(Cl)cc3)CC2)cn1" ; its remaining at 1 h, 1 µM = > 90%

====

# TESTED_SYSTEM: Ubiquitin carboxyl-terminal hydrolase 2 (Homo sapiens)
# Sequence (O75604 whole entry): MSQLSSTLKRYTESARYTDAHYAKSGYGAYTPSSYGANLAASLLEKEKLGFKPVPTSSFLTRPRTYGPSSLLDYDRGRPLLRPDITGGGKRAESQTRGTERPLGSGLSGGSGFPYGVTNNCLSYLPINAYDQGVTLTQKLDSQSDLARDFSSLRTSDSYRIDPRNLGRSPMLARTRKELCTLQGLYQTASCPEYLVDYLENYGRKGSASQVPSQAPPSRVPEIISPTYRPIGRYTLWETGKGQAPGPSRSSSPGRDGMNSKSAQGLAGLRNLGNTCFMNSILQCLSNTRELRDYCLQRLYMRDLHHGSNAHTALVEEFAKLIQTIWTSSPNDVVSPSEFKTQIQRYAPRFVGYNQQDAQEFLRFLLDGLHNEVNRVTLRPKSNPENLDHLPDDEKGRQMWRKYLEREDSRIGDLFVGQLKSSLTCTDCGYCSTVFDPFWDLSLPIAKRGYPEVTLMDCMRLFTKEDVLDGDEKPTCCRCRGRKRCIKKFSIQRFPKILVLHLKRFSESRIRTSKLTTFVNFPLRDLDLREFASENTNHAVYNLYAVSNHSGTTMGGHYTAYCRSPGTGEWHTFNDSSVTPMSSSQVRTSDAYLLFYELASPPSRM
# TEST_NAME: Inhibition of USP2 (unknown origin)
OUTCOME_MEASURE: pEC50
On this scale, pEC50 is minus log10 of a concentration expressed in M (mol/L).

Sure, the documented pEC50 for "N#CSc1cc(SC#N)c(N)nc1N" is 5.14
